test.target: recombinant PIM-1 (Homo sapiens)
test.protocol: PIM-1 kinase assay (radiometric, 15 uM ATP, DMSO 4%)
Type: biochemical
condition.label: Table 1; % inhibition at the high dose (2 micromolar) in a single screening assay; 15 μM ATP
Method: The following procedure was used to assay the PIM-1 kinase activity of compounds of the invention. […] (specific activity approx. 500 cpm/pmol), DMSO 4% and test inhibitor compound at the required concentration. […] The plate was washed 4 times with 0.075% phosphoric acid (100 ul per well) and then, after the addition of scintillation fluid (20 ul per well), the counts were measured by a scintillation counter.
result.type: inhibition at 2 µM (%)

Consider the worked cases shown below.
CN1CCCCC1CNC(=O)c1cccc(-c2ccc(/C=C3/C(=O)Nc4c3cccc4C(F)(F)F)o2)c1 (stereo not shown); 2.32
CN1CCCN(C(=O)c2ccc(-c3ccc(/C=C4/C(=O)Nc5ccccc54)o3)cc2F)CC1; -17.1
CN(C)C1CCN(C(=O)c2cccc(-c3coc(/C=C4/C(=O)Nc5ccc(F)cc54)c3)c2)CC1; 10.8
CN1CCCCC1CNC(=O)c1cccc(-c2coc(/C=C3/C(=O)Nc4ccc(F)cc43)c2)c1 (stereo not shown); 9.42
Cn1ccnc1CNC(=O)c1cccc(-c2ccc(/C=C3/C(=O)Nc4ccc(Cl)cc43)o2)c1; 37

I = Cn1cncc1CNC(=O)c1ccccc1-c1ccc(/C=C2/C(=O)Nc3ccc(F)cc32)o1
II = Cc1cc(NCCN2CCCC2)c2cccc(-c3ccc(/C=C4/C(=O)Nc5ccc(Cl)cc54)o3)c2n1
III = O=C1Nc2ccc(C(=O)NCc3ccccc3)cc2/C1=C\c1ccc(-c2cccc(C(=O)NCCN3CCCC3)c2)o1
Exam item: Ascending sort, inhibition at 2 µM. Write the labels in rank order as requested.
Marked response: II, I, III
(II: -23.4%, I: -2.39%, III: 11.5%)

----------
test.target: recombinant PIM-1 (Homo sapiens, UniProt P11309)
Sequence (P11309 whole entry): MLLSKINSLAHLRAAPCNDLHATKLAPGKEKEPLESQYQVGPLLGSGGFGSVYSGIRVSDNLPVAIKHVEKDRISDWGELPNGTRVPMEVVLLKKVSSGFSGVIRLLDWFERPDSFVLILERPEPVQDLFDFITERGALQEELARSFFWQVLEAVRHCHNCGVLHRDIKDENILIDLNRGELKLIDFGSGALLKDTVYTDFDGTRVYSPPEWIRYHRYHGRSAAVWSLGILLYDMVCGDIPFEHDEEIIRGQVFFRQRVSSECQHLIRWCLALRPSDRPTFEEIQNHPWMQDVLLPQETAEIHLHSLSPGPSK
test.protocol: PIM-1 kinase assay (radiometric, 15 uM ATP, DMSO 4%)
Format: biochemical
condition.label: Table 1; % inhibition at the high dose (2 micromolar) in a single screening assay; 15 μM ATP
result.type: inhibition at 2 µM (%)

Examples with answers:
CN1CCCC(NC(=O)c2ccc(-c3ccc(/C=C4/C(=O)Nc5ccc(F)cc54)o3)cc2)C1 (centres unmarked) [Compound 85]; 84.5
CC1CCCN(CCCNC(=O)c2cccc(-c3ccc(/C=C4/C(=O)Nc5ccc(Cl)cc54)o3)c2)C1 (centres unmarked) [Compound 122]; 39.3
O=C1CN(C(=O)c2cccc(-c3ccc(/C=C4/C(=O)Nc5ccccc54)o3)c2)CCN1 [Compound 23]; -14.2
O=C1Nc2ccc(C(=O)NC3CC3)cc2/C1=C\c1ccc(-c2cccc(C(=O)NCCN3CCCC3)c2)o1 [Compound 9]; 37.2
COC(=O)c1ccccc1-c1ccc(/C=C2/C(=O)Nc3ccc(F)cc32)o1 [Compound 30]; -6.8

P = CN1CCCC(NC(=O)c2ccccc2-c2ccc(/C=C3/C(=O)Nc4ccc(F)cc43)o2)C1 (centres unmarked) [Compound 63]
Q = CN1CCN(C(=O)c2ccc(-c3ccc(/C=C4/C(=O)Nc5ccccc54)o3)cn2)CC1 [Compound 136]
Exam item: For this pair, P and Q , which shows a numerically higher inhibition at 2 µM? Provide the label of your selected option as the answer.
Marked response: Q

Origin of the recorded values: patent US20120190669A1
